# Test system: T lymphocytes
# Run Description: Inhibition of proliferation of PHA-stimulated T lymphocytes (tritium thymidine incorporation)
# Type: cell-based
# Condition Summary: Homo sapiens, T-lymphocyte, 1 μg/ml Phytohemagglutinine, 48 hours, test compounds 0.1-250 μM, read-out: T cells IC50
Provide the reported IC50 of each item.

Incoming: Return value of IC50 for input CC(C)(CNC(=O)CC(N)C(=O)N1CCSC1)CNC(=O)C(O)C(N)Cc1ccccc1 (stereo not drawn) [drawing 236] , no commentary.
Outgoing: ≥ 200 µM

Incoming: Return value of IC50 for input NC(CC(=O)NCCNC(=O)C(O)C(N)Cc1ccccc1)Cc1ccccc1 (stereo not drawn) [drawing 220] , no commentary.
Outgoing: ≥ 200 µM

Incoming: Return value of IC50 for input CC(C)(CNC(=O)CC(N)Cc1cc(F)ccc1F)CNC(=O)C(O)C(N)Cc1ccccc1 (stereo not drawn) [drawing 232] , no commentary.
Outgoing: ≥ 200 µM

Incoming: Return value of IC50 for input NC(CC(=O)NCCCCNC(=O)C(O)C(N)Cc1ccccc1)Cc1cc(F)ccc1F (stereo not drawn) [drawing 231] , no commentary.
Outgoing: ≥ 200 µM

Incoming: Return value of IC50 for input CC(C)(CNC(=O)CC(N)Cc1ccccc1)CNC(=O)C(O)C(N)Cc1ccccc1 (stereo not drawn) [drawing 227] , no commentary.
Outgoing: ≥ 200 µM

Incoming: Return value of IC50 for input NC(CC(=O)NCCCCCNC(=O)C(O)C(N)Cc1ccccc1)Cc1ccccc1 (stereo not drawn) [drawing 233] , no commentary.
Outgoing: ≥ 200 µM

Reference for the values: patent US20120258960A1
